Data origin, for the record: the supplement of paper PMC13380429

Listed here: items and their measured cell viability.
tested on: U2OS; assay: cell viability relative to DMSO; higher = less toxic; conditions: 72 h; 100 nM

Compound: c1ccc(-c2ccc(CNc3nc(-c4ccccn4)nnc3-c3ccccc3)cc2)cc1
cell viability, %: 94.3
--
Compound: OCCN1CCN(CC/C=C2/c3ccccc3Sc3ccc(C(F)(F)F)cc32)CC1
cell viability, %: 105
--
Compound: C[C@H](NC[C@H](O)CP(=O)(O)Cc1ccccc1)c1ccc(Cl)c(Cl)c1
cell viability, %: 94.6
--
Compound: C[C@H](C[C@H](N)C(=O)O)C(=O)O
cell viability, %: 100
--
Compound: Nc1nc2[nH]cc(CCc3ccc(C(=O)N[C@@H](CCC(=O)O)C(=O)O)cc3)c2c(=O)[nH]1
cell viability, %: 107
--
Compound: NS(=O)(=O)Nc1ncnc(OCCOc2ncc(Br)cn2)c1-c1ccc(Br)cc1
cell viability, %: 96.9
--
Compound: NS(=O)(=O)c1cc(C2(O)NC(=O)c3ccccc32)ccc1Cl (configuration not stated)
cell viability, %: 97.3
--
Compound: CN(C)CCC(c1ccccc1)c1ccccn1 (configuration not stated)
cell viability, %: 102
--
Compound: COc1ccc(CCc2nc3cc(-c4c(C)noc4C)ccc3n2C[C@H](C)N2CCOCC2)cc1Cl
cell viability, %: 102
--
Compound: CC[N+](C)(CC)CCC[n+]1c(-c2ccccc2)c2cc(N)ccc2c2ccc(N)cc21 [propidium-iodide]
cell viability, %: 98.4
--
Compound: Cc1[nH]c2ccc(F)cc2c1-c1nc2c3cccnc3c3ncccc3c2[nH]1
cell viability, %: 97.9
--
Compound: C[C@]12CC[C@H]3[C@@H](CCC4=CC(=O)CC[C@@]43C)[C@@H]1CC[C@@H]2C(=O)CO
cell viability, %: 97.1
--
Compound: CC(C)(CO)c1cc2cc(NC(=O)C3(c4ccc5c(c4)OC(F)(F)O5)CC3)c(F)cc2n1C[C@@H](O)CO
cell viability, %: 101
--
Compound: Nc1ncnc2c1ncn2[C@@H]1O[C@H](CO)C[C@H]1O [cordycepin]
cell viability, %: 95
--
Compound: CC(C)c1nc(CN(C)C(=O)N[C@H](C(=O)N[C@@H](Cc2ccccc2)C[C@H](O)[C@H](Cc2ccccc2)NC(=O)OCc2cncs2)C(C)C)cs1
cell viability, %: 98
--
Compound: Cc1ccc(S(=O)(=O)Nc2ccc3c(c2)c(C(=O)C(F)(F)F)cn3CC(=O)N[C@@H](CC(C)C)C(=O)O)cc1
cell viability, %: 102
--
Compound: O=C(Nc1ccccc1)N1CCC(Cc2cnc3ccccc3c2)CC1
cell viability, %: 96.8
